Each item that follows carries a reported EC50.
- tested-target: Akt3 (Homo sapiens)
- Construct: endogenous in cells
- Sequence (Q9Y243 whole entry): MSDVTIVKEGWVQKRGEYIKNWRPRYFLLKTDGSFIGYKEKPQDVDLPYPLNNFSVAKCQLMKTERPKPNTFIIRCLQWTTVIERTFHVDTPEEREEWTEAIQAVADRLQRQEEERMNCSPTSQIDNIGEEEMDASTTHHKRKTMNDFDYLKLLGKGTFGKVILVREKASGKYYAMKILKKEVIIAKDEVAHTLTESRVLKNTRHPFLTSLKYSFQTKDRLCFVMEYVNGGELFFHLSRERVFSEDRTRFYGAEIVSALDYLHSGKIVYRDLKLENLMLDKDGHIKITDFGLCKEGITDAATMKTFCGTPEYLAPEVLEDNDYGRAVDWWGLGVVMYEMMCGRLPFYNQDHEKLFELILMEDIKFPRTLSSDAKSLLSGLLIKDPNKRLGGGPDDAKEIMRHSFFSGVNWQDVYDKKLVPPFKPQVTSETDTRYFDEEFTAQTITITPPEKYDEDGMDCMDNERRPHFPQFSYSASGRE
- assay-details: Akt3 activation activity of selected compounds

Some entries whose results are on file:
compound	tested-target	EC50
Cc1cc(Nc2ccc3[nH]c(-c4ccc(Nc5cc(C)nc6ccc(N7CCOCC7)cc56)cn4)nc3c2)ccn1	Akt3 (Homo sapiens)	< 50 nM
Cc1cc(Nc2ccc3[nH]c(-c4ccc(Nc5ccnc6ccc(N(C)C)cc56)cc4)nc3c2)ccn1	Akt3 (Homo sapiens)	< 5000 nM
Cc1cc(Nc2ccc3[nH]c(-c4ccc(Nc5ccnc6ccc(N7CCOCC7)cc56)cn4)nc3c2)ccn1	Akt3 (Homo sapiens)	< 20 nM
Cc1cc(Nc2ccc3[nH]c(-c4ccc(Nc5cc(C)nc6ccc(N7CCOCC7)cc56)nc4)nc3c2)ccn1	Akt3 (Homo sapiens)	< 50 nM

Check Akt3 (Homo sapiens) data and give EC50 for Cc1cc(Nc2ccc3[nH]c(-c4ccc(Nc5cc(C)nc6ccc(N7CC(C)OC(C)C7)cc56)cc4)nc3c2)ccn1 (stereo not drawn) .
< 50 nM

Check Akt3 (Homo sapiens) data and give EC50 for Cc1cc(Nc2ccc3[nH]c(-c4ccc(Nc5cc(C)nc6ccc(N7CCOCC7)cc56)cn4)nc3n2)ccn1 .
< 2000 nM

Check Akt3 (Homo sapiens) data and give EC50 for Cc1cc(Nc2ccc3[nH]c(-c4ccc(Nc5cc(C)nc6ccc(N7CC(C)OC(C)C7)cc56)cn4)nc3c2)ccn1 (stereo not drawn) .
< 50 nM

Check Akt3 (Homo sapiens) data and give EC50 for Cc1cc(Nc2ccc3[nH]c(-c4ccc(Nc5ccnc6ccc(N7CCOCC7)cc56)nc4)nc3c2)ccn1 .
< 50 nM

Check Akt3 (Homo sapiens) data and give EC50 for Cc1cc(Nc2ccc3[nH]c(-c4ccc(Nc5ccnc6ccc(N7CC(C)OC(C)C7)cc56)cc4)nc3c2)ccn1 (stereo not drawn) .
< 20 nM
